Target: E. coli FabB (β-ketoacyl-ACP synthase I) (Escherichia coli, UniProt P0A953)
Construct: made in house; host or cells: pET-15b-FabB expression vector; Novagen expression strains
Sequence (P0A953 whole entry): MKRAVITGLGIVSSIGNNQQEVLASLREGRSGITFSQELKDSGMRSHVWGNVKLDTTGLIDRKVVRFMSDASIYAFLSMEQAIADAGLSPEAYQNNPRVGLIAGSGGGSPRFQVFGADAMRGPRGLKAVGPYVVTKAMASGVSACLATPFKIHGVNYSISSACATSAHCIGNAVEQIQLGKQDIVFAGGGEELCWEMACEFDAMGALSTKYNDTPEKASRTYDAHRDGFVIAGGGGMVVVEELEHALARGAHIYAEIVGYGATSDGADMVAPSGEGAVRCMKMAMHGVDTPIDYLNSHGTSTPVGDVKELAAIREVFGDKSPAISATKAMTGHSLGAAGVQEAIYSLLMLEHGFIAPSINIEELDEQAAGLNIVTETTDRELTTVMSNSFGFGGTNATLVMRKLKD
Assay: FabB radiochemical condensing enzyme assay with myristoyl-ACP
Format: biochemical
MEASUREMENT LABEL: IC50 (µM)
Respond with the bare value in µM.

**Query** Provide IC50 value for the following compound: C=C/C(C)=C/C1(C)SC(=O)C(C)=C1O (stereo in doubt) [TLM]
**Result** 25

---

Target: E. coli FabH (β-ketoacyl-ACP synthase III) (Escherichia coli, UniProt P0A6R0)
Construct: made in house
Sequence (P0A6R0 whole entry): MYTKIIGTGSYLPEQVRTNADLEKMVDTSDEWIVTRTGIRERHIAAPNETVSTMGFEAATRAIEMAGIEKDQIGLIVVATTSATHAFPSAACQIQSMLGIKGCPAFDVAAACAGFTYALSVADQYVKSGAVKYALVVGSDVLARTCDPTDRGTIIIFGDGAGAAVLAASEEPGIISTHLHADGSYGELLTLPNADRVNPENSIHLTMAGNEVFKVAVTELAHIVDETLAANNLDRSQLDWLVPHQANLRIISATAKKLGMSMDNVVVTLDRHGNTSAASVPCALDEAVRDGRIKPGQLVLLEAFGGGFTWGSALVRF
Test: FabH filter disc assay with [1-14C]acetyl-CoA
Format: biochemical
Experimental: A filter disc assay was used to assay FabH activity with [1-^14C]acetyl-CoA as described previously (15,18). The assays contained 100 μM ACP, 1 mM β-mercaptoethanol, 45 μM [^14C]acetyl-CoA (specific activity, 52.0 Ci/mole), and 50 μM malonyl-CoA, E. coli FabD (0.3 μg) and 0.1 M sodium phosphate buffer (pH 7.0) in a final volume of 40 μl. […] The filters were dried and counted in 3 ml of scintillation cocktail.
MEASUREMENT LABEL: IC50 (µM)
# output: bare number, implied unit µM

**Query** Quote IC50 reported for C=C/C(C)=C/C1(C)SC(=O)C(C)=C1O (stereo in doubt) please.
**Result** 110

---

Target: E. coli FabF (β-ketoacyl-ACP synthase II) (Escherichia coli, UniProt P0AAI5)
Construct: made in house
Sequence (P0AAI5 whole entry): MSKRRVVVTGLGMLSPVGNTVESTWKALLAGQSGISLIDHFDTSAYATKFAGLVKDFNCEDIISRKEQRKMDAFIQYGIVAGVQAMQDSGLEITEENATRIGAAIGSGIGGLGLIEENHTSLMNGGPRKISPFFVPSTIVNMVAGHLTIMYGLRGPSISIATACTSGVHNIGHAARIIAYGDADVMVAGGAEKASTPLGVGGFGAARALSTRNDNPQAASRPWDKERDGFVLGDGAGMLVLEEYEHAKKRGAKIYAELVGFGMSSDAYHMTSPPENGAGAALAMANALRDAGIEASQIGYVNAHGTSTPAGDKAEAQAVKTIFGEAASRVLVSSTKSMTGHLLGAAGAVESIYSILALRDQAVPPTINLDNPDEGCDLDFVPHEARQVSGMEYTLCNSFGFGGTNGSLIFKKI
Experiment: FabF radiochemical condensing enzyme assay with myristoyl-ACP
Format: biochemical
MEASUREMENT LABEL: IC50

**Query** Name the recorded IC50 of the item C=C/C(C)=C/C1(C)SC(=O)C(C)=C1O (stereo in doubt) [TLM] in your answer.
**Result** 6 µM

---

Molecular target: E. coli FabB (β-ketoacyl-ACP synthase I) (Escherichia coli)
Construct: made in house; host or cells: pET-15b-FabB expression vector; Novagen expression strains
Assay: FabB radiochemical condensing enzyme assay with myristoyl-ACP
Format: biochemical
Details: purified E. coli enzyme, myristoyl-ACP (14:0-ACP) substrate; read-out: IC50 FabB
MEASUREMENT LABEL: IC50 (µM)
Hi! Could you send only the number? It should be in µM, unit omitted.

**Query** Dear colleague, please send me the reported IC50 for C/C=C/C/C=C/CCC(=O)[C@H]1O[C@H]1C(N)=O when you can.
**Result** 3

---

Target: E. coli FabF (β-ketoacyl-ACP synthase II) (Escherichia coli)
Construct: made in house
Assay: FabF radiochemical condensing enzyme assay with myristoyl-ACP
Type: biochemical
Settings: purified E. coli enzyme, myristoyl-ACP substrate; read-out: IC50 FabF
MEASUREMENT LABEL: IC50 (µM)
Field: numeric (µM). Do not append units.

**Query** Give the reported IC50 for this compound. C/C=C/C/C=C/CCC(=O)[C@H]1O[C@H]1C(N)=O [cerulenin]
**Result** 20
